- experimentalProtocol: equilibrium solubility experiments in buffer media at different pH conditions
- Assay type: physicochemical
- conditionContext: buffer media, pH 4, aqueous buffer, thermodynamic from solid, pH 4.0 buffer, 1 h
valueKind: solubility at 1 h (µg/mL)
Numbers only, in µg/mL.

The molecule listed as `Cc1nnc(-c2cc(C(=O)N3CCC(c4ccc(C#N)cc4)CC3)c(C)cc2C2CCC2)[nH]1` has a reported solubility at 1 h of 0.68

* * *

- experimentalProtocol: equilibrium solubility experiments in buffer media at different pH conditions
- Type: physicochemical
- conditionContext: buffer media, pH 2, simulated gastric fluid, thermodynamic from solid, pH 2.0 buffer, 22 h
valueKind: solubility at 22 h (µg/mL)
Answers are plain numbers, in µg/mL.

The measured solubility at 22 h associated with `Cc1nnc(-c2cc(C(=O)N3CCC(c4ccc(C#N)cc4)CC3)c(C)cc2C2CCC2)[nH]1` reads 3.22

* * *

- experimentalProtocol: equilibrium solubility experiments in buffer media at different pH conditions
- Assay type: physicochemical
- conditionContext: buffer media, pH 5, aqueous buffer, thermodynamic from solid, pH 5.0 buffer, 22 h
valueKind: solubility at 22 h (µg/mL)
Numbers only, in µg/mL.

solubility at 22 h reading for `Cc1nnc(-c2cc(C(=O)N3CCC(c4ccc(C#N)cc4)CC3)c(C)cc2C2CCC2)[nH]1` : 0.51

* * *

- experimentalProtocol: equilibrium solubility experiments in buffer media at different pH conditions
- Assay type: physicochemical
- conditionContext: buffer media, pH 4.5, aqueous buffer, thermodynamic from solid, pH 4.5 buffer, 22 h
valueKind: solubility at 22 h (µg/mL)
Give bare numbers, in µg/mL.

Per the records, this compound ( `Cc1nnc(-c2cc(C(=O)N3CCC(c4ccc(C#N)cc4)CC3)c(C)cc2C2CCC2)[nH]1` ) has solubility at 22 h equal to 0.59

* * *

- experimentalProtocol: equilibrium solubility experiments in buffer media at different pH conditions
- Assay type: physicochemical
- conditionContext: buffer media, pH 2, simulated gastric fluid, thermodynamic from solid, pH 2.0 buffer, 1 h
valueKind: solubility at 1 h (µg/mL)
Numbers only, in µg/mL.

Please fill in: solubility at 1 h reported for `Cc1nnc(-c2cc(C(=O)N3CCC(c4ccc(C#N)cc4)CC3)c(C)cc2C2CCC2)[nH]1` = 3.57

* * *

- experimentalProtocol: equilibrium solubility experiments in buffer media at different pH conditions
- Format: physicochemical
- conditionContext: buffer media, pH 6, aqueous buffer, thermodynamic from solid, pH 6.0 buffer, 22 h
- From the text: Additionally, the present invention conducted equilibrium solubility experiments of the monohydrate crystalline API, amorphous API, and hot-melt extrudate dispersion intermediate in buffer media at different pH conditions. Table 3. Summary of equilibrium solubility (µg/ml) of monohydrate crystalline API, amorphous API, and hot-melt extrudate dispersion intermediate
valueKind: solubility at 22 h
Number first, unit second.

Note to self: solubility at 22 h recorded for `Cc1nnc(-c2cc(C(=O)N3CCC(c4ccc(C#N)cc4)CC3)c(C)cc2C2CCC2)[nH]1` was 0.45 µg/mL

* * *

- experimentalProtocol: equilibrium solubility experiments in buffer media at different pH conditions
- Format: physicochemical
- conditionContext: buffer media, pH 7.5, aqueous buffer, thermodynamic from solid, pH 7.5 buffer, 22 h
valueKind: solubility at 22 h (µg/mL)
Answers are plain numbers, in µg/mL.

Input `Cc1nnc(-c2cc(C(=O)N3CCC(c4ccc(C#N)cc4)CC3)c(C)cc2C2CCC2)[nH]1` . Output solubility at 22 h: 0.43

* * *

- experimentalProtocol: equilibrium solubility experiments in buffer media at different pH conditions
- Assay type: physicochemical
- conditionContext: buffer media, pH 4, aqueous buffer, thermodynamic from solid, pH 4.0 buffer, 22 h
- Source text: Additionally, the present invention conducted equilibrium solubility experiments of the monohydrate crystalline API, amorphous API, and hot-melt extrudate dispersion intermediate in buffer media at different pH conditions. Table 3. Summary of equilibrium solubility (µg/ml) of monohydrate crystalline API, amorphous API, and hot-melt extrudate dispersion intermediate
valueKind: solubility at 22 h (µg/mL)
Numbers only, in µg/mL.

So for `Cc1nnc(-c2cc(C(=O)N3CCC(c4ccc(C#N)cc4)CC3)c(C)cc2C2CCC2)[nH]1` , the logged solubility at 22 h turned out to be 0.6

* * *

- experimentalProtocol: equilibrium solubility experiments in buffer media at different pH conditions
- Assay type: physicochemical
- conditionContext: buffer media, pH 6.8, aqueous buffer, thermodynamic from solid, pH 6.8 buffer, 22 h
valueKind: solubility at 22 h

So for `Cc1nnc(-c2cc(C(=O)N3CCC(c4ccc(C#N)cc4)CC3)c(C)cc2C2CCC2)[nH]1` , the logged solubility at 22 h turned out to be 0.42 µg/mL
